Catalogue of compounds with associated GI50
Tested on: SF-295
assay-info: NCI tumour cell line growth inhibition, 48 h
The source made the active and inactive calls. Rule as the data show it: active = GI50 up to about 1.1 µM and inactive = higher.

Consider the following illustrative entries.
Cc1cc(O)c(C(C)C)cc1NC(=O)Nc1cccc2ccccc12 ... 13.8 µM (inactive)
CN(C)C(n1cc2c(c1)-c1ccc(Cl)cc1C(c1ccccc1F)=NC2)n1cc2c(c1)-c1ccc(Cl)cc1C(c1ccccc1F)=NC2 ... 26.3 µM (inactive)
c1ccc2c(c1)CCN1CCc3ccccc3C1C2 (stereo not given) ... 26.9 µM (inactive)
CCCCc1c2c(nc3c1CCC/C3=C\c1ccccc1)C(=O)CCC2 ... 21.2 µM (inactive)

*Q* // returns reported GI50 for input `Brc1cc2nn(-c3ccccc3)nc2c2nonc12`
*A* > 100 µM (inactive)

---

Tested on: PC-3
assay-info: NCI tumour cell line growth inhibition, 48 h
Calls of active or inactive are those of the source. No stated cut-off is given here; in the data, active = GI50 up to about 1.1 µM and inactive = higher.
Log the outcome using a class from 1 for active, -1 for inactive

Record excerpt, results attached:
CC1=C(C2=C(C)C(=O)C(=O)c3cc(C)ccc32)c2ccc(C)cc2C(=O)C1=O ... 1
C=C1C(=O)O[C@@H]2[C@H]1CC[C@H](C)[C@]1(O)CCC(=O)[C@@]21C [CORONOPILIN] ... -1
Cc1ccc(NC(=S)C#N)cc1Cl ... -1

*Q* Please share the test call associated with `COc1cc2cc[n+](C)c(Cc3ccc(Oc4cc(Cc5c6cc(OC)c(OC)cc6cc[n+]5C)ccc4OC)cc3)c2cc1OC` .
*A* -1

*Q* Please share the test call associated with `CCC[C@H](C)C[C@H](C)C[C@H](C)/C=C(\C)[C@@H](O)[C@@H](C)C(=O)CC` .
*A* -1

---

System: OVCAR-8
assay-info: NCI tumour cell line growth inhibition, 48 h
Calls of active or inactive are those of the source. Cut-off read from the data, not from the text of the source: active = GI50 up to about 1.1 µM and inactive = higher.
Log the outcome using a class from active, inactive

Record excerpt, results attached:
COCCOCOc1ccc(OCc2ccccc2)cc1 ... inactive
Cc1nn(-c2ccccc2)c(-c2ccccc2[N+](=O)[O-])c1CC#N ... inactive
Nc1ccc2c(SCCSc3c4ccccc4nc4cc(N)ccc34)c3ccccc3nc2c1 ... inactive
O=C(Nc1ccc2nc(-c3ccccc3)cn2c1)Oc1ccccc1 ... inactive

*Q* Please share the test call associated with `Nc1ccccc1N/C(=C\C(=O)C(Cl)(Cl)Cl)c1ccccc1` .
*A* inactive

*Q* Please share the test call associated with `Cc1ccnc2nc(-c3cccc(Cl)c3)cc(O)c12` .
*A* active

---

Test system: T47D
assay-info: NCI tumour cell line growth inhibition, 48 h
Activity calls are given as the source filed them. Cut-off read from the data, not from the text of the source: active = GI50 up to about 1.1 µM and inactive = higher.
Catalogue of compounds with associated GI50

Consider the following illustrative entries.
CCC(=N\NC(N)=S)/C(C)=N/O ... > 100 µM (inactive)
COc1cc(C#CC(=O)OC/C=C/c2ccc3c(c2)OCO3)cc(OC)c1OC ... 59.6 µM (inactive)
CCC[C@H](C)C[C@H](C)C[C@H](C)/C=C(\C)[C@@H](O)[C@@H](C)C(=O)CC ... 23.6 µM (inactive)
CCCCCCOc1ccc(NC2=C(Cl)C(=O)c3cccnc3C2=O)cc1 ... 1.62 µM (inactive)

Proceed to the following item.
*Q* // returns reported GI50 for input CCOC(=O)C1=C(C)N(Cc2ccccc2)C2(O)C=CC(O)=C3C(=O)c4ccccc4C(=O)C312 (stereo not given)
*A* 18.9 µM (inactive)
